Test: qHTS for Inhibitors of human tyrosyl-DNA phosphodiesterase 1 (TDP1): qHTS in cells in absence of CPT; also: nearly all actives have a fitted effect of over 55% in size
Conditions: DT40 Tdp1-/- hTDP1 cells, no CPT, ATP luminescence, 48 h
About 64,000 (15%) of roughly 420,000 compounds were called active. Another 27% or so got no clear call; they are omitted. Calls follow the shape of the dose curve; as a rule, active = well fitted inhibition curve with a large enough effect; inconclusive = small, poorly fitted or top-dose-only effect; inactive = flat fitted curve, though single readings scatter. A selection follows.
Outcomes: active, inactive

compound | labelClass
COc1ccc(CNC(=O)COC(=O)C2=Cc3ccccc3OC2)cc1 | inactive
C[C@@H]1CN([C@H](C)CO)C(=O)c2cc(Br)cnc2O[C@@H]1CN(C)Cc1cncnc1 | inactive
O=C(c1cccc([N+](=O)[O-])c1)N1CCN(Cc2ccccc2)CC1 | inactive
O=C(c1ccncc1)N1CCN(S(=O)(=O)c2cccc([N+](=O)[O-])c2)CC1 | inactive
Cc1cccc(NC(=O)Nc2cccc(Oc3c(F)c(F)c(F)c(F)c3F)c2)c1 | active
CCc1ccc(N(CC(=O)NCc2cccnc2)S(=O)(=O)c2ccccc2)cc1 | inactive
O=c1cnnc(Nc2ccccc2)[nH]1 | inactive
O=C(CN(c1cc(C(F)(F)F)ccc1Cl)S(=O)(=O)c1ccccc1)NCc1cccnc1 | active
CC1(c2cccc([N+](=O)[O-])c2)CC(C)(C)N(C(=O)c2ccccc2)c2ccccc21 (stereo not given) | active
COc1cccc(NC(=O)Cc2ccc(C)cc2)c1 | inactive

* * *

Assay: qHTS for Inhibitors of human tyrosyl-DNA phosphodiesterase 1 (TDP1): qHTS in cells in absence of CPT; also: nearly all actives have a fitted effect of over 55% in size
Details: DT40 Tdp1-/- hTDP1 cells, no CPT, ATP luminescence, 48 h
Out of some 420,000 compounds screened, about 64,000 (15%) were called active. Not shown: some 27% with an inconclusive outcome. Calls come from the whole dose curve; as a rule, active = well fitted inhibition curve with a large enough effect; inconclusive = small, poorly fitted or top-dose-only effect; inactive = flat fitted curve, though single readings scatter. Only a sample is shown.
Outcomes: 1 = active, 0 = inactive

molecule | labelClass
N#Cc1cccc(Nc2c3c(nc4ccccc24)CCCC3)c1 | 1
COc1ccc(CN2CC[C@H]3C=CC[C@@H](C(=O)N4CCOCC4)[C@H]3C2=O)cc1OC | 0
N#Cc1cccc(NC(=O)CN2CCCCCC2)c1 | 0
CC(=O)Nc1ccc(NC(=O)C(C)n2c3ccccc3c3nc(=O)cc(C)n32)cc1 (stereo not given) | 0
O=[N+]([O-])c1cccc(Nc2c3ccccc3nc3ccccc23)c1 | 1
Cc1ccccc1NC(=O)c1cc2c([nH]c1=O)CC(C)(C)CC2=O | 0
CCN1CCN(Cc2c(O)ccc3c(=O)c(-c4ccc(OC)c(OC)c4)c(C(F)(F)F)oc23)CC1 | 0
Cn1c(N)c(C(=O)COC(=O)c2ccc3ccccc3c2)c(=O)n(C)c1=O | 0
Cn1cccc1C(=O)OCC(=O)NCCc1ccccc1 | 0
COC(=O)Nc1ccc(S(=O)(=O)Nc2cc(OC)nc(OC)n2)cc1 | 0

* * *

Experiment: qHTS for Inhibitors of human tyrosyl-DNA phosphodiesterase 1 (TDP1): qHTS in cells in absence of CPT; also: nearly all actives have a fitted effect of over 55% in size
Details: DT40 Tdp1-/- hTDP1 cells, no CPT, ATP luminescence, 48 h
Hit rate of the full screen: of about 420,000 compounds, about 64,000 (15%) were called active. Roughly 27% stayed inconclusive and do not appear here. The call rests on the fitted dose curve; in most records, active means well fitted inhibition curve with a large enough effect; inconclusive means small, poorly fitted or top-dose-only effect; inactive means flat fitted curve, though single readings scatter. Not all results are given here.
Outcomes: active, inactive

compound | labelClass
C=CCOc1ccc(/C=C2\SC(=S)N(CCC(=O)O)C2=O)cc1 | inactive
CCCOc1ccc(C2NC(=O)NC(c3ccccc3)=C2C(C)=O)cc1OCC (stereo not given) | active
COc1cc(C2NC(=O)NC(c3ccccc3)=C2C(C)=O)c(Br)cc1OCC(N)=O (stereo not given) | inactive
COc1ccc(/C=C2\SC(=S)N(CCC(=O)Nc3cccc(C(=O)O)c3)C2=O)cc1OC | inactive
O=c1c(CCc2ccccc2)nc2cncnc2n1C1CC1 | inactive
CN(C)N(C)C(=O)C(O)(c1ccccc1)c1ccccc1 | inactive
COc1cccc(-c2nc(CS(=O)(=O)CC(=O)NCCc3ccc(OC)c(OC)c3)c(C)o2)c1 | inactive
COc1ccc(/C=C2\SC(=S)N(CCCC(=O)NC3CCCC3)C2=O)cc1OC | active
O=C(CCCN1C(=O)/C(=C/c2ccccc2)SC1=S)Nc1ccc(O)cc1 | inactive
COc1cccc(/C=C2/SC(=S)N(CC(=O)NC3C=CS(=O)(=O)C3)C2=O)c1 (stereo not given) | inactive
